Source: patent US20070167526A1

- protocol-description: 6-hour ocular pharmacokinetics of 2% Mecamylamine GELRITE solution following topical instillation (Example 10)
- Type: in vivo, New Zealand White rabbit
- settings: female, New Zealand White, rabbit, cornea, topical, 2% in GELRITE, 2 × 50 μL, OU (bilateral), 6 hr, read-out: Mecamylamine concentration in Cornea, Mean
readout-name: concentration at 6 h (ng/g)
Value expressed in ng/g; do not type the unit.

Req: Reported concentration at 6 h, molecule CNC1(C)C2CCC(C2)C1(C)C (stereo not shown) : ____
Resp: 1230

###

- protocol-description: 6-hour ocular pharmacokinetics of 2% Mecamylamine GELRITE solution following topical instillation (Example 10)
- Type: in vivo, New Zealand White rabbit
- settings: female, New Zealand White, rabbit, plasma, topical, group MEC OU 3 hr, Post, read-out: Mecamylamine concentration in blood Plasma, Mean
readout-name: concentration at 3 h (ng/mL)
Respond numerically; units are ng/mL and should not be typed.

Req: For the molecule shown here, CNC1(C)C2CCC(C2)C1(C)C (stereo not shown) [mecamylamine] , give the reported concentration at 3 h.
Resp: 8.3

###

- protocol-description: Distribution of mecamylamine into ocular tissue of rabbits following intravenous administration (Example 9)
- Format: in vivo, New Zealand white rabbit
- settings: male, New Zealand white, rabbit, vitreous humor, iv, 15 mg/kg, 15 mg/kg i.v. 6 hr infusion, hour 4, read-out: Concentration of mecamylamine in the vitreous humor, Mean
readout-name: concentration at 4 h (µg/mL)
Number in µg/mL, nothing else.

Req: Consider the compound CNC1(C)C2CCC(C2)C1(C)C (stereo not shown) and give its measured concentration at 4 h.
Resp: 0.408

###

- protocol-description: Distribution of mecamylamine into ocular tissue of rabbits following intravenous administration (Example 9)
- Type: in vivo, New Zealand white rabbit
- settings: male, New Zealand White, rabbit, retina/choroid, iv, 15 mg/kg, 15 mg/kg i.v. 6 hr infusion, hour 6, read-out: Concentration of mecamylamine in the retina/choroid, Mean
readout-name: concentration at 6 h (ng/mL)
Report only the number, with the unit ng/mL understood.

Req: Which concentration at 6 h is listed for CNC1(C)C2CCC(C2)C1(C)C (stereo not shown) ?
Resp: 1530

###

- protocol-description: 6-hour ocular pharmacokinetics of 2% Mecamylamine GELRITE solution following topical instillation (Example 10)
- Assay type: in vivo, New Zealand White rabbit
- settings: female, New Zealand White, rabbit, aqueous humor, topical, 2% in GELRITE, 2 × 50 μL, OU (bilateral), 3 hr, read-out: Mecamylamine concentration in Aqueous humor, Mean
readout-name: concentration at 3 h (ng/g)
Just the number in ng/g, nothing appended.

Req: // query concentration at 3 h value for entry CNC1(C)C2CCC(C2)C1(C)C (stereo not shown)
Resp: 500

###

- protocol-description: Single- and multiple-dose rabbit ocular pharmacokinetics (Example 7)
- Assay type: in vivo, Dutch-belted rabbit
- settings: male, Dutch-belted, retina/choroid and plasma, topical, 50 µL of 3% solution per dose; rabbit; 3% solution; read-out: ratio of mecamylamine concentration in the retina/choroid to the plasma
- Method: Dutch-belted male rabbits (Covance, Denver, Pa.) aged 2.5 to 4.5 months and with weights of 1.5 to 2.5 kg were given a 3% solution of mecamylamine hydrochloride (polymer-free solution) by ocular installation either as a single dose or 6 doses (50 microliters per dose), approximately 1.5 hours apart. […] The concentration of mecamylamine in plasma and ocular tissues was measured using an LC MS/MS method as described in Example 6.
readout-name: Kp

Req: Item CNC1(C)C2CCC(C2)C1(C)C (stereo not shown) has what recorded Kp?
Resp: 37 to 147
